target: p300 (Homo sapiens); construct: host or cells: A549 P300 HiBit cells; test: P300 degradation, HiBit technology in A549 P300 HiBit cells (2 h); format: cell-based; conditions: A549 P300 HiBit cells, 2 hrs post treatment
Sequence (Q09472 whole entry): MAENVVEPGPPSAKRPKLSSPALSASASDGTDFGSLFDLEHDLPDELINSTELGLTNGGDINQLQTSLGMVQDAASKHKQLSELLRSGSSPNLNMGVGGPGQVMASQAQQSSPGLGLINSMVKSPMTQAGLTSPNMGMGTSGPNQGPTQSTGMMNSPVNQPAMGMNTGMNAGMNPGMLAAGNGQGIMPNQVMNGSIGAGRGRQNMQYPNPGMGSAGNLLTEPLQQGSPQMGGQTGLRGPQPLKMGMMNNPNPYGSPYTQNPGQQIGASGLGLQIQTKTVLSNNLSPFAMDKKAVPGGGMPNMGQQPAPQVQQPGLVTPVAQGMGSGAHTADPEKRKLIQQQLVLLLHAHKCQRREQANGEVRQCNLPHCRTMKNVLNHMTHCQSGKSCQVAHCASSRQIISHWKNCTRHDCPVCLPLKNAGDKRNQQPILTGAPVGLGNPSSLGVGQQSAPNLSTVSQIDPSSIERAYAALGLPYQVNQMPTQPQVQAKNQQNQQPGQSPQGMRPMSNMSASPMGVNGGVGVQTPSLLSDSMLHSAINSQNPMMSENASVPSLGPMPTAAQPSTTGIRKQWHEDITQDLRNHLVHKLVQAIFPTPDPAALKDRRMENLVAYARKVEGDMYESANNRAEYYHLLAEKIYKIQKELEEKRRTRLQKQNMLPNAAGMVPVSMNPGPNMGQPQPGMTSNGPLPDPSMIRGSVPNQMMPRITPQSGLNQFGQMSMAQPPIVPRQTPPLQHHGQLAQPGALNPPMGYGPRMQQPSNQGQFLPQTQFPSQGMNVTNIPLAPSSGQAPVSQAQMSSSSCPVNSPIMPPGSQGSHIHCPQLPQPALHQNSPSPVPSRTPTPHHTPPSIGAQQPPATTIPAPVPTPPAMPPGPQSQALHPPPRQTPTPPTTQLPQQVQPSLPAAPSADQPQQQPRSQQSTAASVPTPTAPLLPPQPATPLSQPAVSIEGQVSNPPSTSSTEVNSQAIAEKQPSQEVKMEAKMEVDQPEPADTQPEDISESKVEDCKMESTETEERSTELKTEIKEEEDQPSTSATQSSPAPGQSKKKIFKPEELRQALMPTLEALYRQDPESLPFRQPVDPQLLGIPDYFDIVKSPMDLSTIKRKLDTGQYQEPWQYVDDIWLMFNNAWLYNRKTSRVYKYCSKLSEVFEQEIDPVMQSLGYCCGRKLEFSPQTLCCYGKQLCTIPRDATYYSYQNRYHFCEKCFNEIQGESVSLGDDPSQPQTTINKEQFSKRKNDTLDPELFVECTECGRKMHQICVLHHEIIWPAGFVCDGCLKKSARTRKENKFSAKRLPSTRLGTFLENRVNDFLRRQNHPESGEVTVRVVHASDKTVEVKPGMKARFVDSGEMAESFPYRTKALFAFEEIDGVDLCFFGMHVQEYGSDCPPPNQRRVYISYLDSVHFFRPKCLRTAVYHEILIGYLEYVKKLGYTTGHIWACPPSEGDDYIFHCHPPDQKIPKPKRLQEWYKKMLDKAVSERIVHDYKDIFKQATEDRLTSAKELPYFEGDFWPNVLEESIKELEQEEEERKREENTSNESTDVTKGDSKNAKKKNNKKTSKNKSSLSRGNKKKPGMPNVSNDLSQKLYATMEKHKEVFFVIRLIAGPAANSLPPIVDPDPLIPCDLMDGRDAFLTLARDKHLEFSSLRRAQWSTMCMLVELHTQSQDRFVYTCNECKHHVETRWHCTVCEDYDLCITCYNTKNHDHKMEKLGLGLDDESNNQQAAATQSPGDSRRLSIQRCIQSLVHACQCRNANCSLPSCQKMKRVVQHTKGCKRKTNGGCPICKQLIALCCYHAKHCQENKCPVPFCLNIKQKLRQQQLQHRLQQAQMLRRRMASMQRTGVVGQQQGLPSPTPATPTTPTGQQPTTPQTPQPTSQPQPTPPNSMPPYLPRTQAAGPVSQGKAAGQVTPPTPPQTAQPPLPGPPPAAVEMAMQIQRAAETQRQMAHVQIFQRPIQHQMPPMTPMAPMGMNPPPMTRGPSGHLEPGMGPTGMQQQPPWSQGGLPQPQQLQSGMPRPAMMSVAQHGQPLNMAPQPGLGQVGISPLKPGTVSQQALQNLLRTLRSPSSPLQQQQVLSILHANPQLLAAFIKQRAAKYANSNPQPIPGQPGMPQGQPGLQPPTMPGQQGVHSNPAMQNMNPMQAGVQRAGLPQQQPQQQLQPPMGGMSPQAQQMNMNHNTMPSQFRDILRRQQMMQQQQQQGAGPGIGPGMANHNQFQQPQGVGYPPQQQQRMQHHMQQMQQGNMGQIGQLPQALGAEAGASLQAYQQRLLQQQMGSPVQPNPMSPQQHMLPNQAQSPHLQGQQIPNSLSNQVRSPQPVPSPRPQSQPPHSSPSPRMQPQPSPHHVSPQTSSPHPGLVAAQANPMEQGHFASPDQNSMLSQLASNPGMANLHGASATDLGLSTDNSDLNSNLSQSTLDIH
result.type: DC50

compound="CC(C)c1cc(-c2cccc3cc(-c4ccc(C(=O)NCC#Cc5cc6c(C7CCC(=O)NC7=O)cn(C)c6cn5)nc4)ncc23)cc2c1n(C)c(=O)n2C (stereo not drawn) [Example A232]" result_type=DC50 recorded_value="10 to 99 nM"
compound="Cc1cc2c(N3CCN(C)c4cc(-c5ccc(C(=O)NCC#Cc6cc7c(C8CCC(=O)NC8=O)cccc7o6)nc5)ncc43)cccc2n(C)c1=O (stereo not drawn) [Example B114]" result_type=DC50 recorded_value="< 1 nM"
compound="Cc1cc(-c2cc3cccc(-c4ccc5c(c4)n(C)c(=O)n5C)c3cn2)cnc1C(=O)NCC#Cc1cc2c(C3CCC(=O)NC3=O)cccc2o1 (stereo not drawn) [Example A180]" result_type=DC50 recorded_value="1 to 9.9 nM"
compound="Cc1cc(-c2ncc3c(n2)CCCN3c2ccc3c(c2)n(C)c(=O)n3C)cnc1C(=O)NCC#Cc1ccc2occ(C3CCC(=O)NC3=O)c2c1 (stereo not drawn) [Example A79]" result_type=DC50 recorded_value="1 to 9.9 nM"
compound="Cc1cc2c(N3CCCc4nc(-c5ccc(C(=O)NCC#Cc6cc7cccc(C8CCC(=O)NC8=O)c7o6)nc5)ncc43)cc(C3CCOCC3)cc2n(C)c1=O (stereo not drawn) [Example B148]" result_type=DC50 recorded_value="1 to 9.9 nM"
compound="Cc1cc(-c2ncc(N(C)c3cc(C4CCOCC4)cc4c3cc(C)c(=O)n4C)nn2)cnc1C(=O)NCC#Cc1ccc2occ(C3CCC(=O)NC3=O)c2c1 (stereo not drawn) [Example B135]" result_type=DC50 recorded_value="> 1000 nM"

---

Recorded Dmax for the following molecules
target: CBP (Homo sapiens, UniProt Q92793); construct: host or cells: A549 CBP HiBit cells; experiment: CBP degradation, HiBit technology in A549 CBP HiBit cells (24 h); format: cell-based; conditions: 24 hrs post treatment
Sequence (Q92793 whole entry): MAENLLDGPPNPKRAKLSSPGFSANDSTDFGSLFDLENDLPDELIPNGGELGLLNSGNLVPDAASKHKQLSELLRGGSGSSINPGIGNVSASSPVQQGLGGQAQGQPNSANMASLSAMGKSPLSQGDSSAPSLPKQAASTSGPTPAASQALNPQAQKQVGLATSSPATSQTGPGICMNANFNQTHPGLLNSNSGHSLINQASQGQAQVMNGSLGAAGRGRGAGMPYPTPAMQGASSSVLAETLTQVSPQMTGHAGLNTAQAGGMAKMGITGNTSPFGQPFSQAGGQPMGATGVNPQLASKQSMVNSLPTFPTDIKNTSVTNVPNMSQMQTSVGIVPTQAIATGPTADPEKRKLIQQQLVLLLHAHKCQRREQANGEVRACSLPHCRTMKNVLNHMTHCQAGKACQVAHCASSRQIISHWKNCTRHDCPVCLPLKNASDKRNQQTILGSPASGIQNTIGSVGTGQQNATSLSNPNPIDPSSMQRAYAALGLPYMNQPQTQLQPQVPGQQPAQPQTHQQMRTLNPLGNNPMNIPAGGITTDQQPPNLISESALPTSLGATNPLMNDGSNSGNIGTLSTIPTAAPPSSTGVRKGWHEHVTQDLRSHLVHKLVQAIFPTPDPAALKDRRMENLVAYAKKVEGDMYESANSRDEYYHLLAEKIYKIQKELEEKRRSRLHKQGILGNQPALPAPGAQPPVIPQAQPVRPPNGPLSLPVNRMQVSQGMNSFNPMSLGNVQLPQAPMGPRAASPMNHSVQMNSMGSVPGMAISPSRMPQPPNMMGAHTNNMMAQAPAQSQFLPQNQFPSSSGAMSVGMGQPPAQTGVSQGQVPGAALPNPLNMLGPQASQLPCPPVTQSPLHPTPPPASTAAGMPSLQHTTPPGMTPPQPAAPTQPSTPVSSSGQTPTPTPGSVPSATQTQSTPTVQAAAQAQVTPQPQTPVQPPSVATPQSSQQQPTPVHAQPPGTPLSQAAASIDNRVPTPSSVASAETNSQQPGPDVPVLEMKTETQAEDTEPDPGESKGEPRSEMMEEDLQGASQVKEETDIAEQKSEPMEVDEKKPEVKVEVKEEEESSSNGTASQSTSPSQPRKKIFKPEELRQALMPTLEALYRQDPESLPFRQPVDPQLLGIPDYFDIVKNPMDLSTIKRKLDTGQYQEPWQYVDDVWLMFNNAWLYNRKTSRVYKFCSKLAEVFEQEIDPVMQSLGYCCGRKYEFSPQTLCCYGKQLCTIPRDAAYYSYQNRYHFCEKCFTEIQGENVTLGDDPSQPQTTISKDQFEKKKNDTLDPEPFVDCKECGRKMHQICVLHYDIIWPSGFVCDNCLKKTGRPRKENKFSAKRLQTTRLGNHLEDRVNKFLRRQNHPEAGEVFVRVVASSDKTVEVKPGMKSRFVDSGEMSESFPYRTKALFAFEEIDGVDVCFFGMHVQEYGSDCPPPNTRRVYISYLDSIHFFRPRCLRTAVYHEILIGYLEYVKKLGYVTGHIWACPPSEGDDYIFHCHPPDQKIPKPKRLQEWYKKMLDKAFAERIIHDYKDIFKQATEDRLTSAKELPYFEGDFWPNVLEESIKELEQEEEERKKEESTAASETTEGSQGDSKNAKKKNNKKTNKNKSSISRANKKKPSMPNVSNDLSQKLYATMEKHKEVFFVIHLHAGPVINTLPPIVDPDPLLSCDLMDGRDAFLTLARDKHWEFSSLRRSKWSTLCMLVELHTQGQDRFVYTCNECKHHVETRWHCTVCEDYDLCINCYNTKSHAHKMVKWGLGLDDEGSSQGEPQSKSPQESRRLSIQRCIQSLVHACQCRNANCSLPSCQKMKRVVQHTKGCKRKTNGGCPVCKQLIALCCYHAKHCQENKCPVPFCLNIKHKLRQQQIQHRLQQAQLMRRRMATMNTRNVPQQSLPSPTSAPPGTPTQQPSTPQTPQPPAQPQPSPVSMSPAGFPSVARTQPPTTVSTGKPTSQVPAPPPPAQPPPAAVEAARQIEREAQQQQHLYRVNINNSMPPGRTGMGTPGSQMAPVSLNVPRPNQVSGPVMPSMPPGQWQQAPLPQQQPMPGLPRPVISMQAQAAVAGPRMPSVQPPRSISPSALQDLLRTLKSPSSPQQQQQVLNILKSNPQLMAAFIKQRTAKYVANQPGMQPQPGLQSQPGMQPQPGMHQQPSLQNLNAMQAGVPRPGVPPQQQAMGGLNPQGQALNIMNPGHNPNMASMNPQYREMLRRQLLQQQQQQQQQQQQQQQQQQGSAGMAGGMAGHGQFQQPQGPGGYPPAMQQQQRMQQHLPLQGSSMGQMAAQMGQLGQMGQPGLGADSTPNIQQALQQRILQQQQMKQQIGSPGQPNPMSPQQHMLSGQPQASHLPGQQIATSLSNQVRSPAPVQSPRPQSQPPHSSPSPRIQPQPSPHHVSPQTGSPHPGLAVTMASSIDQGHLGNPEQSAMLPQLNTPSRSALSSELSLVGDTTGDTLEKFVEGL
result.type: Dmax

molecule="Cn1c(=O)n(C)c2c(N3CC4(COC4)C3)nc(-c3cccc4cc(-c5ccc(C(=O)NCC#Cc6ccc7occ(C8CCC(=O)NC8=O)c7c6)nc5)ncc34)cc21 (stereo not shown) [Example A136]" result_type=Dmax recorded_value="< 20%"
molecule="Cc1cc2c(N3CCCc4nc(-c5ccc(C(=O)NCC#Cc6ccc7occ(C8CCC(=O)NC8=O)c7c6)nc5)ncc43)nc(N3CC4CCC(C3)O4)cc2n(C)c1=O (stereo not shown) [Example B115]" result_type=Dmax recorded_value="< 20%"
molecule="Cc1cc2c(N3CCCc4cc(-c5ccc(C(=O)NCC#Cc6cc7c(C8CCC(=O)NC8=O)cccc7o6)nc5)nnc43)cc(C3CCOCC3)cc2n(C)c1=O (stereo not shown) [Example B138]" result_type=Dmax recorded_value="< 20%"
molecule="Cn1c(=O)n(C)c2c(N3CCC(C)(O)CC3)cc(-c3cccc4cc(-c5ccc(C(=O)NCC#Cc6cccc(NC7CCC(=O)NC7=O)c6)nc5)ncc34)cc21 (stereo not shown) [Example A271]" result_type=Dmax recorded_value="60 to 79%"
molecule="Cn1c(=O)n(C)c2cc(-c3cccc4cc(-c5ccc(C(=O)NCC#Cc6ccc7occ(C8CCC(=O)NC8=O)c7c6)nc5)ncc34)ccc21 (stereo not shown) [Example A119]" result_type=Dmax recorded_value="< 20%"
molecule="Cc1cc(-c2ncc3c(n2)OCCN3c2ccc3c(c2)n(C)c(=O)n3C)cnc1C(=O)NCC#Cc1cc2c(C3CCC(=O)NC3=O)nccc2o1 (stereo not shown) [Example A195]" result_type=Dmax recorded_value="< 20%"
molecule="CC(C)c1cc(-c2cccc3cc(-c4ccc(C(=O)NCC#Cc5cccc(NC67CC(C6)C(=O)NC7=O)c5)nc4)ncc23)cc2c1n(C)c(=O)n2C [Example A2]" result_type=Dmax recorded_value="< 20%"
molecule="Cc1cc2c(N3CCCc4nc(-c5ccc(C(=O)NCC#Cc6ccc7occ(C8CCC(=O)NC8=O)c7c6)nc5)ncc43)cccc2n(C)c1=O (stereo not shown) [Example B110]" result_type=Dmax recorded_value="< 20%"
molecule="Cc1cc2c(N3CCOc4nc(-c5ccc(C(=O)NCC#Cc6cc7c(C8CCC(=O)NC8=O)cccc7o6)nc5)ncc43)cc(C3CCOCC3)cc2n(C)c1=O (stereo not shown) [Example B96]" result_type=Dmax recorded_value="< 20%"
molecule="Cc1cc(N2CCOc3nc(-c4ccc(C(=O)NCC#Cc5cc6c(C7CCC(=O)NC7=O)nccc6o5)nc4)ncc32)cc2c1n(C)c(=O)n2C (stereo not shown) [Example A160]" result_type=Dmax recorded_value="< 20%"
molecule="Cc1cc2c(N3CCCc4nc(-c5ccc(C(=O)NCC#Cc6ccc7occ(C8CCC(=O)NC8=O)c7c6)nc5)ccc43)cc(C3CCOCC3)cc2n(C)c1=O (stereo not shown) [Example B127]" result_type=Dmax recorded_value="< 20%"
molecule="Cc1cc(-c2cc3cccc(-c4cnc5c(c4)n(C)c(=O)n5C)c3cn2)cnc1C(=O)NCC#Cc1cc2c(C3CCC(=O)NC3=O)cccc2o1 (stereo not shown) [Example A189]" result_type=Dmax recorded_value="< 20%"
molecule="Cc1cc(-c2ncc(N(C)c3cc(C(C)C)c4c(c3)n(C)c(=O)n4C)cn2)cnc1C(=O)NCC#Cc1cccc(NC2CCC(=O)NC2=O)c1 (stereo not shown) [Example A51]" result_type=Dmax recorded_value="< 20%"
molecule="Cn1c(=O)n(C)c2c(N3CC(C)(O)C3)nc(-c3cccc4cc(-c5ccc(C(=O)NCC#Cc6ccc7occ(C8CCC(=O)NC8=O)c7c6)nc5)ncc34)cc21 (stereo not shown) [Example A145]" result_type=Dmax recorded_value="< 20%"
molecule="CC(C)c1cc(N2CCOc3cc(-c4ccc(C(=O)NCC#Cc5ccc6occ(C7CCC(=O)NC7=O)c6c5)nc4)ncc32)cc2c1n(C)c(=O)n2C (stereo not shown) [Example A58]" result_type=Dmax recorded_value="< 20%"
molecule="Cc1cc2c(N3CCCc4nc(-c5ccc(C(=O)NCC#Cc6ccc7occ(C8CCC(=O)NC8=O)c7c6)nc5)ncc43)nc(N3CC(F)C3)cc2n(C)c1=O (stereo not shown) [Example B68]" result_type=Dmax recorded_value="< 20%"
molecule="CCc1cc(-c2cccc3cc(-c4ccc(C(=O)NCC#Cc5ccc6cnn(C7CCC(=O)NC7=O)c6c5)nc4)ncc23)c2cc(C)c(=O)n(C)c2c1 (stereo not shown) [Example B5]" result_type=Dmax recorded_value="< 20%"
molecule="Cc1cc2c(-c3cccc4cc(-c5ccc(C(=O)NCC#Cc6ccc7occ(C8CCC(=O)NC8=O)c7c6)nc5)ncc34)nc(N3CCOCC3)cc2n(C)c1=O (stereo not shown) [Example B92]" result_type=Dmax recorded_value="20 to 39%"
molecule="Cn1c(=O)n(C)c2c(N3CC4CCC(C3)O4)nc(-c3cccc4cc(-c5ccc(C(=O)NCC#Cc6ccc7occ(C89CC(C8)C(=O)NC9=O)c7c6)nc5)ncc34)cc21 [Example A194]" result_type=Dmax recorded_value="< 20%"
molecule="Cc1cc2c(N3CCCc4nc(-c5ccc(C(=O)NCC#Cc6ccc7occ(C8CCC(=O)NC8=O)c7c6)nc5)ncc43)cc(C3CCOCC3)cc2n(C)c1=O (stereo not shown) [Example B53]" result_type=Dmax recorded_value="< 20%"
molecule="Cc1cc(-c2ncc3c(n2)CCCN3c2cc(C3CCOCC3)cc3c2cc(C)c(=O)n3C)cnc1C(=O)NCC#Cc1cc2c(C3CCC(=O)NC3=O)cccc2s1 (stereo not shown) [Example B165]" result_type=Dmax recorded_value="20 to 39%"
molecule="Cn1c(=O)n(C)c2c(N3CCOCC3)nc(-c3cccc4cc(-c5ccc(C(=O)NCC#Cc6ccc7occ(C8CCC(=O)NC8=O)c7c6)nc5)ncc34)cc21 (stereo not shown) [Example A138]" result_type=Dmax recorded_value="< 20%"
